Please provide measured MIC for the entries that follow.
# Tested on: A. baumannii 19606
# test_protocol: MIC determination, broth microdilution (CLSI)
# Assay type: cell-based
# run_parameters: Acinetobacter baumannii, Mueller Hinton Broth II, 37° C., 18-24 hours, read-out: Strain8 MIC
Numbers only, in µg/mL.

Provide the reported MIC of each entry below, same order.
1. Cc1sc(N)nc1/C(=N/O[C@@H](COc1ccc(C(=N)N[C@@H]2CCNC2)cc1)C(=O)O)C(=O)N[C@@H]1C(=O)N(OS(=O)(=O)O)C1(C)C
2. Cc1sc(N)nc1/C(=N/O[C@@H](COc1ccc(C(=N)N[C@H]2CCCNC2)cc1)C(=O)O)C(=O)N[C@@H]1C(=O)N(OS(=O)(=O)O)C1(C)C

8
16

----------
Please provide measured MIC for the entries that follow.
# Test system: A. baumannii clinical isolate
# test_protocol: MIC determination, broth microdilution (CLSI)
# Type: cell-based
# run_parameters: Acinetobacter baumannii, Mueller Hinton Broth II, 37° C., 18-24 hours, read-out: Strain 7 MIC
Answers are plain numbers, in µg/mL.

MIC for Cc1sc(N)nc1/C(=N/O[C@@H](COc1ccc(C(=N)N[C@H]2CCNC2)cc1)C(=O)O)C(=O)N[C@@H]1C(=O)N(OS(=O)(=O)O)C1(C)C ? 32

Field: next compound
MIC for Cc1sc(N)nc1/C(=N/O[C@@H](COc1ccc(C(=N)NC2CNC2)cc1)C(=O)O)C(=O)N[C@@H]1C(=O)N(OS(=O)(=O)O)C1(C)C ? 32

----------
# Test system: E. coli 8739
# test_protocol: MIC determination, broth microdilution (CLSI)
# Assay type: cell-based
# run_parameters: Escherichia coli, Mueller Hinton Broth II, 37° C., 18-24 hours, read-out: Strain 2 MIC
Please provide measured MIC for the entries that follow.
Give bare numbers, in µg/mL.

MIC for Cc1sc(N)nc1/C(=N/O[C@@H](COc1ccc(C(=N)N[C@@H]2CCCNC2)cc1)C(=O)O)C(=O)N[C@@H]1C(=O)N(OS(=O)(=O)O)C1(C)C ? 2

MIC for Cc1sc(N)nc1/C(=N/O[C@@H](COc1ccc(C(=N)N[C@H]2CCNC2)cc1)C(=O)O)C(=O)N[C@@H]1C(=O)N(OS(=O)(=O)O)C1(C)C ? 4

MIC for Cc1sc(N)nc1/C(=N/O[C@@H](COc1ccc(C(=N)N[C@H]2CCCNC2)cc1)C(=O)O)C(=O)N[C@@H]1C(=O)N(OS(=O)(=O)O)C1(C)C ? 4

MIC for Cc1sc(N)nc1/C(=N/O[C@@H](COc1ccc(C(=N)NC2CCNCC2)cc1)C(=O)O)C(=O)N[C@@H]1C(=O)N(OS(=O)(=O)O)C1(C)C ? 4

MIC for Cc1sc(N)nc1/C(=N/O[C@@H](COc1ccc(C(=N)NC2CNC2)cc1)C(=O)O)C(=O)N[C@@H]1C(=O)N(OS(=O)(=O)O)C1(C)C ? 4

MIC for C[C@H]1[C@H](NC(=O)/C(=N\OC(C)(C)C(=O)O)c2csc(N)n2)C(=O)N1S(=O)(=O)O [AZT, Aztreonam, reference compound] ? 16

MIC for Cc1sc(N)nc1/C(=N/O[C@@H](COc1ccc(C(=N)N[C@@H]2CCNC2)cc1)C(=O)O)C(=O)N[C@@H]1C(=O)N(OS(=O)(=O)O)C1(C)C ? 0.25

MIC for Cc1sc(N)nc1/C(=N/O[C@@H](COc1ccc(C(=N)N[C@@H]2CCNC2)cc1)C(=O)O)C(=O)N[C@@H]1C(=O)N(S(=O)(=O)O)[C@H]1C ? 0.5

Others:
MIC for CC1(C)[C@H](NC(=O)/C(=N\O[C@@H](COc2ccc(C(=N)N[C@@H]3CCNC3)cc2)C(=O)O)c2nc(N)sc2C(F)(F)F)C(=O)N1OS(=O)(=O)O ? 8

----------
# System: A. baumannii clinical isolate
# test_protocol: MIC determination, broth microdilution (CLSI)
# Type: cell-based
# run_parameters: Acinetobacter baumannii, Mueller Hinton Broth II, 37° C., 18-24 hours, read-out: Strain 7 MIC
Please provide measured MIC for the entries that follow.
Don't forget the unit after the number, please.

Record excerpt, results attached:
MIC for Cc1sc(N)nc1/C(=N/O[C@@H](COc1ccc(C(=N)N[C@@H]2CCNC2)cc1)C(=O)O)C(=O)N[C@@H]1C(=O)N(S(=O)(=O)O)[C@H]1C [Example 8] ? 32 µg/mL

MIC for Cc1sc(N)nc1/C(=N/O[C@@H](COc1ccc(C(=N)NC2CCNCC2)cc1)C(=O)O)C(=O)N[C@@H]1C(=O)N(OS(=O)(=O)O)C1(C)C [Example 1] ? 32 µg/mL

MIC for Cc1sc(N)nc1/C(=N/O[C@@H](COc1ccc(C(=N)N[C@@H]2CCCNC2)cc1)C(=O)O)C(=O)N[C@@H]1C(=O)N(OS(=O)(=O)O)C1(C)C [Example 2] ? 16 µg/mL

MIC for Cc1sc(N)nc1/C(=N/O[C@@H](COc1ccc(C(=N)N[C@@H]2CCNC2)cc1)C(=O)O)C(=O)N[C@@H]1C(=O)N(OS(=O)(=O)O)C1(C)C [Example 6] ? 8 µg/mL

MIC for CC1(C)[C@H](NC(=O)/C(=N\O[C@@H](COc2ccc(C(=N)N[C@@H]3CCNC3)cc2)C(=O)O)c2nc(N)sc2C(F)(F)F)C(=O)N1OS(=O)(=O)O [Example 7] ? 16 µg/mL

Field: next molecule
MIC for Cc1sc(N)nc1/C(=N/O[C@@H](COc1ccc(C(=N)N[C@H]2CCCNC2)cc1)C(=O)O)C(=O)N[C@@H]1C(=O)N(OS(=O)(=O)O)C1(C)C [Example 5] ? 32 µg/mL

----------
Please provide measured MIC for the entries that follow.
# System: A. baumannii 19606
# test_protocol: MIC determination, broth microdilution (CLSI)
# Format: cell-based
# run_parameters: Acinetobacter baumannii, Mueller Hinton Broth II, 37° C., 18-24 hours, read-out: Strain8 MIC
Give bare numbers, in µg/mL.

MIC for Cc1sc(N)nc1/C(=N/O[C@@H](COc1ccc(C(=N)NC2CNC2)cc1)C(=O)O)C(=O)N[C@@H]1C(=O)N(OS(=O)(=O)O)C1(C)C ? 16

MIC for Cc1sc(N)nc1/C(=N/O[C@@H](COc1ccc(C(=N)N[C@H]2CCNC2)cc1)C(=O)O)C(=O)N[C@@H]1C(=O)N(OS(=O)(=O)O)C1(C)C ? 32

MIC for Cc1sc(N)nc1/C(=N/O[C@@H](COc1ccc(C(=N)NC2CCNCC2)cc1)C(=O)O)C(=O)N[C@@H]1C(=O)N(OS(=O)(=O)O)C1(C)C ? 16

Provide the reported MIC of each entry below, same order.
1. C[C@H]1[C@H](NC(=O)/C(=N\OC(C)(C)C(=O)O)c2csc(N)n2)C(=O)N1S(=O)(=O)O [AZT, Aztreonam, reference compound]
2. Cc1sc(N)nc1/C(=N/O[C@@H](COc1ccc(C(=N)N[C@@H]2CCCNC2)cc1)C(=O)O)C(=O)N[C@@H]1C(=O)N(OS(=O)(=O)O)C1(C)C
3. Cc1sc(N)nc1/C(=N/O[C@@H](COc1ccc(C(=N)N[C@@H]2CCNC2)cc1)C(=O)O)C(=O)N[C@@H]1C(=O)N(S(=O)(=O)O)[C@H]1C
4. CC1(C)[C@H](NC(=O)/C(=N\O[C@@H](COc2ccc(C(=N)N[C@@H]3CCNC3)cc2)C(=O)O)c2nc(N)sc2C(F)(F)F)C(=O)N1OS(=O)(=O)O

1: 32; 2: 16; 3: 16; 4: 16
